assay: HPLC-MS-based stability (blank, without N-α-acetyl-lysine) in BBS buffer pH 10.2; conditions: pH 10.2 buffer without N-α-acetyl-lysine
Mark each entry T if its Stability t1/2, pH 10.2 sits below 10 h, and F for all others.

Molecular string | Label class
O=Cc1c(O)cc(C(F)(F)F)cc1C(F)(F)F | F

Lab note: next molecule to report on.
Problem: In plain terms, does "FC(F)(F)c1cc(Nc2nc(Cl)nc(Cl)n2)cc(C(F)(F)F)c1" come in under 10 h for Stability t1/2, pH 10.2?
Solution: T

---

We begin with a simple list: items and their reported Lys-reactivity t1/2, pH 10.2.
test: HPLC-MS-based N-α-acetyl-lysine reactivity assay; conditions: pH 10.2, monitored for 24 h
Report as a plain number; the unit h is understood.

Consider the worked cases shown below.
Molecular string | Measurement
O=Cc1c(O)cc(C(F)(F)F)cc1C(F)(F)F | 40.93
Cc1ccc(S(=O)(=O)N(CC#N)C(=O)Cc2cc(C(F)(F)F)cc(C(F)(F)F)c2)cc1 | 0.26
C#Cc1ccc(C(F)(F)F)cc1C=O | 0.23

Now for the compound whose Lys-reactivity t1/2, pH 10.2 we want.
Problem: Entry under review: "CC(=O)N(C(=O)c1cc(C(F)(F)F)cc(C(F)(F)F)c1)c1ccccc1" . Reported Lys-reactivity t1/2, pH 10.2?
Solution: 0.27

---

test: HPLC-MS-based stability (blank, without N-α-acetyl-lysine) in BBS buffer pH 10.2; settings: pH 10.2 buffer without N-α-acetyl-lysine
We begin with a simple list: items and their reported Stability t1/2, pH 10.2.
Report as a plain number; the unit h is understood.

Consider the worked cases shown below.
Molecule | Stability t1/2, pH 10.2, h
O=Cc1cc2ccccc2cc1C=O [compound 31, 2,3‐naphthalene‐dicarboxaldehyde] | 11.69
C#Cc1ccc(C(F)(F)F)cc1C=O [compound 32] | 15.36
FC(F)=Cc1cc(C(F)(F)F)cc(C(F)(F)F)c1 [compound 17] | 3.32
COc1c(Nc2cc(C(F)(F)F)cc(C(F)(F)F)c2)c(=O)c1=O [compound 18] | 12.17
O=S(=O)(On1nnc2ccccc21)c1cc(C(F)(F)F)cc(C(F)(F)F)c1 [compound 6] | 0.35
Cc1ccc(S(=O)(=O)N(CC#N)C(=O)Cc2cc(C(F)(F)F)cc(C(F)(F)F)c2)cc1 [compound 8] | 0.17

Now for the molecule whose Stability t1/2, pH 10.2 we want.
Problem: Entry under review: O=S(=O)(F)Oc1cc(C(F)(F)F)cc(C(F)(F)F)c1 [compound 4] . Reported Stability t1/2, pH 10.2?
Solution: 4.94
